Target: human serum protease plasmin (human, UniProt P00747 97-810, limits assumed)
Sequence (P00747 97-810 limits assumed): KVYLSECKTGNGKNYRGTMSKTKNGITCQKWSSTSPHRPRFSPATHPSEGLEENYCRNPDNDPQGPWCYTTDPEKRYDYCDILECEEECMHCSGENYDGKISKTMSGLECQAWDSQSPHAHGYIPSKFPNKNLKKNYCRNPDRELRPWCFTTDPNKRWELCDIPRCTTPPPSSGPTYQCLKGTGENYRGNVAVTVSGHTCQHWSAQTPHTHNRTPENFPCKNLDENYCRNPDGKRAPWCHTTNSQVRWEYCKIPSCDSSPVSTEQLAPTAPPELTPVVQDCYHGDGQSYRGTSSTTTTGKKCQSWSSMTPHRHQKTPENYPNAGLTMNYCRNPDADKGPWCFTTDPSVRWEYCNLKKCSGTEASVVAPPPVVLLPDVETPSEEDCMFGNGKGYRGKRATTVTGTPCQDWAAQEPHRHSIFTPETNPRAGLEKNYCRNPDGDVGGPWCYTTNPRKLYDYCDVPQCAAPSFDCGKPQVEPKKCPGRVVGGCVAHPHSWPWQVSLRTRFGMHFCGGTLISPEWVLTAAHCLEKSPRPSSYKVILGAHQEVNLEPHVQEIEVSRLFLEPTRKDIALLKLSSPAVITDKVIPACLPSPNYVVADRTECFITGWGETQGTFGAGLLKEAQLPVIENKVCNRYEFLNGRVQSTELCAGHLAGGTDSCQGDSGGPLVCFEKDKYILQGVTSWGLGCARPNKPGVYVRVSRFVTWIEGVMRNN
Assay: phage binding to protein on beads (data not shown)

{"BINDER": "RWCPKTSLGCMKDSDCLAECVCLEHGYCGAGPSYIEGRIVGSA (designed binder, not shown: mature gene III protein of M13 phage) [CMTI-I analogue 101, phage isolate]", "binding result": "no binding"}
{"BINDER": "RWCIRTDLGCMKDSDCLAECVCLEHGYCGAGPSYIEGRIVGSA (designed binder, not shown: mature gene III protein of M13 phage) [CMTI-I analogue 116, phage isolate]", "binding result": "no binding"}
{"BINDER": "RLCPKTDLGCMKDSDCLAECVCLEHGYCGAGPSYIEGRIVGSA (designed binder, not shown: mature gene III protein of M13 phage) [CMTI-I analogue 113, phage isolate]", "binding result": "no binding"}

Values were extracted from patent US20030162942A1.
